# Run Description: self-splicing fitness, log relative to wild type (ln ratio); higher = more splicing; Tetrahymena group I intron in knt gene, E. coli kanamycin selection, DiMSum; sequences stand for … in CUCUCU…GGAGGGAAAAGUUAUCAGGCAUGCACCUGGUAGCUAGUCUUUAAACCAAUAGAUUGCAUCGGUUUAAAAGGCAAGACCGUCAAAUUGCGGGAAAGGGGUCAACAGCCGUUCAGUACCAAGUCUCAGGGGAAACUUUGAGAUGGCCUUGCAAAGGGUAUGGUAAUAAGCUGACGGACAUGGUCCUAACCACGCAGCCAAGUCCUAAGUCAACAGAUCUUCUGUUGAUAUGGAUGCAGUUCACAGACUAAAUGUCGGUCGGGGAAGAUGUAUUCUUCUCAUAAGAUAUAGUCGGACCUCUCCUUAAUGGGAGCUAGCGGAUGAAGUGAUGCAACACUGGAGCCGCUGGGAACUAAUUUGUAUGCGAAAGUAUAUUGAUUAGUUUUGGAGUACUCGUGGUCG;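 also: selection with 25 µg/mL kanamycin versus none on LB agar overnight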
# Stated Conditions: 30 °C
Property Measured: self-splicing fitness (ln)

seq_text=ACAGAGCAAUAUUACGCGAA readout_value=-3.58
seq_text=ACUAAGCAAUAUUACGACAG readout_value=-0.663
seq_text=CGCAAGCAAUAUUACGAGAC readout_value=-3.4
seq_text=CACCAGCAAUAUUACGCUUA readout_value=-2.24
seq_text=CCGAAGCAAUAUUACGAUUA readout_value=-2.53
seq_text=UACCAGCAAUAUUACGGAAU readout_value=-2.32
seq_text=GUCCAGCAAUAUUACGAGUA readout_value=-2.36
seq_text=ACAGAGCAAUAUUACGUAGA readout_value=-4.17
seq_text=CUCUAGCAAUAUUACGCCAC readout_value=-2.66
seq_text=UACCAGCAAUAUUACGUUUC readout_value=-4
seq_text=ACGUAGCAAUAUUACGUGAU readout_value=-3.19
seq_text=UCCGAGCAAUAUUACGUCAG readout_value=-3.62
seq_text=AAGAAGCAAUAUUACGCUCU readout_value=-3.54
seq_text=GUCUAGCAAUAUUACGAUGC readout_value=0.169
seq_text=UCCCAGCAAUAUUACGAUCG readout_value=-3.52
seq_text=AGUCAGCAAUAUUACGCCUA readout_value=-0.754
seq_text=UCUAAGCAAUAUUACGAUUU readout_value=-2.92
seq_text=UGGUAGCAAUAUUACGUCGG readout_value=-1.21
seq_text=ACCAAGCAAUAUUACGUCGA readout_value=-2.16
seq_text=AGUAAGCAAUAUUACGGUGU readout_value=-2.92
seq_text=AUCCAGCAAUAUUACGCUGC readout_value=-3.85
seq_text=AUUGAGCAAUAUUACGUGCA readout_value=-2.91
